Cited source for all entries: ChEMBL document CHEMBL4732237

# System: TK-10
# ASSAY OVERVIEW: Growth inhibition of human TK-10 cells at 10 uM incubated for 48 hrs by sulforhodamine B assay relative to control
# Type: functional
# COND: read-out: GI
Assign inhibition of growth at 10 µM to each entry below.
One number for each entry, in %.

Below are worked cases with known answers.
COc1cc2nc(-c3ccc(C(F)(F)F)cc3)cc(OCCN3CCOCC3)c2cc1OC :: 13
COc1cc2nc(-c3ccc(Cl)cc3)cc(OCCCN3CCCC3)c2cc1OC :: 62
COc1cc2nc(-c3cccs3)cc(OCCCN3CCC(O)CC3)c2cc1OC :: 20

Hi there! I need inhibition of growth at 10 µM for each item below, if you can.
1. COc1cc2nc(-c3ccc(C(F)(F)F)cc3)cc(OCCN3CCCC3)c2cc1OC
2. COc1cc2nc(-c3ccc(Cl)cc3)cc(OCCCN3CCC(O)CC3)c2cc1OC
3. COc1cc2nc(-c3ccc(Cl)cc3)cc(OCCCN3CCCCC3)c2cc1OC
4. COc1cc2nc(-c3ccc(Cl)cc3)cc(OCCN3CCOCC3)c2cc1OC

a:
[13, 62, 62, 3]
